assay.method.text: growth inhibitors of tim23-1 mutant yeast, primary screen, luminescence, uHTS (AID 463212);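 also: temperature-sensitive mutant grown at 25 °C; plate controls were DMSO-treated mutant yeast for no effect and medium wells lacking yeast for full effect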
experimental.parameters: S. cerevisiae tim23-1 growth, BacTiter-Glo luminescence, 24 h; at 20 µM
The whole screen tested about 330,000 compounds, of which about 4,400 (1.3%) were called active.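 The calls were made as follows: active = growth inhibition of the mutant yeast at or above 50%; inactive = the rest.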 For the sample, actives were picked, then their nearest neighbours and some compounds at random.
Labels: 1 (active), 0 (inactive)

>>> label_value("N#C/C(=C\\c1cccnc1)C(=O)Nc1ccc(SC(F)F)cc1")
1
>>> label_value("COc1ccc(CNc2ncnc3ccccc23)cc1")
0
>>> label_value("Nc1nc(SCC(=O)Nc2ccc(Cl)cc2C(F)(F)F)n[nH]1")
0
>>> label_value("O=C(COC(=O)C1CCCCC1)Nc1ccc([N+](=O)[O-])cc1")
0
>>> label_value("C=C1CCC(N(O)c2cc(C)on2)C(=C)CCC2C1CC2(C)C (stereo not drawn)")
1
>>> label_value("O=C(COC(=O)/C=C/c1cn(-c2ccccc2)nc1-c1cccnc1)Nc1ccc(Cl)cc1Cl")
0
>>> label_value("O=C1Nc2ccccc2/C1=C/c1ccnc2ccccc12")
1
>>> label_value("O=C1c2ccccc2S(=O)(=O)N1CC(O)Cn1c2ccccc2c2ccccc21 (stereo not drawn)")
1
>>> label_value("CC1CN(C(=O)c2ccc([N+](=O)[O-])s2)CC(C)O1 (stereo not drawn)")
0
>>> label_value("Cc1c(S(=O)(=O)NC(C)c2ccccc2)c(=O)n(C)c(=O)n1C (stereo not drawn)")
0
>>> label_value("CCc1ccc(NC(=O)CS(=O)CC(=O)N2CCN(c3ccccc3F)CC2)cc1 (stereo not drawn)")
0
>>> label_value("CCCc1[nH]nc2c1C(c1ccc(OC)c(Cn3nc(C)c(Br)c3C)c1)C(C#N)=C(N)O2 (stereo not drawn)")
0
>>> label_value("COc1ccc(/C(O)=C2/C(=O)C(=O)N(CC3CCCO3)C2c2ccc(OC)c(OC)c2)cc1 (stereo not drawn)")
0
>>> label_value("Cc1cc(C)cc(C(=O)OCC(=O)NCCNC(=O)COC(=O)c2cc(C)cc(C)c2)c1")
0
>>> label_value("CCC(C)c1ccc(NC(=O)COC(=O)C2CCCC2)cc1 (stereo not drawn)")
1
>>> label_value("Cc1cccc(OP(=O)(Nc2c(C)n(C)n(-c3ccccc3)c2=O)Oc2cccc(C)c2)c1")
0
>>> label_value("CCc1ccccc1NC(=O)CN(c1ccc(OC)cc1OC)S(=O)(=O)c1ccccc1[N+](=O)[O-]")
1
>>> label_value("CC(C)(C)c1ccc(CN2C(=O)c3ccccc3S2(=O)=O)cc1")
0
>>> label_value("Cc1cccc(N(C)C(=O)c2cc(S(=O)(=O)N3CCCCC3)c[nH]2)c1")
0
>>> label_value("COc1cc(OC)c2c(-c3cccc(-c4cccc(N)c4)c3)cc(=O)oc2c1")
0
>>> label_value("CCCCN(CCCC)CC(O)Cn1c2ccccc2c(=O)c2ccccc21 (stereo not drawn)")
0
>>> label_value("CN(C)/N=C/c1cn(-c2ccccc2)nc1-c1cccnc1")
1
>>> label_value("Cc1cccc(C)c1NC(=O)CSc1nnc(-c2ccccc2)n1Cc1ccc2c(c1)OCO2")
0
>>> label_value("O=C(/C=C/Sc1ncn[nH]1)c1ccc(Cl)cc1")
1
>>> label_value("C/C(=N/NC(=O)c1cc(Cl)ccc1O)C12CC3CC(CC(C3)C1)C2")
1
>>> label_value("COc1ccccc1C(C)NC(=O)Cc1ccsc1 (stereo not drawn)")
0
>>> label_value("COc1ccc(-c2cc(C)nc3nc(N)nn23)cc1")
0
>>> label_value("CC(=O)NC1CCN(CC(=O)Nc2nccs2)CC1")
0
>>> label_value("NS(=O)(=O)c1ccc(CCNC(=O)CNC(=O)Cc2ccccc2)cc1")
0
>>> label_value("Cc1cc(/C=C(/C#N)C(=O)Nc2ccc(Cl)cc2)c(C)n1-c1cccnc1")
0
>>> label_value("O=[N+]([O-])c1ccc(C=Nc2ccc(Cl)cc2Cl)s1")
1
>>> label_value("O=C(CCCNS(=O)(=O)c1cccc2nsnc12)NCCN1CCN(c2ccccc2F)CC1")
0
>>> label_value("COc1ccc2c(c1)C(=C(C#N)C#N)C(=O)N2CCc1ccccc1")
1
>>> label_value("O=C(COc1ccc(F)cc1Br)NCC1COc2ccccc2O1 (stereo not drawn)")
0
>>> label_value("O=C(c1[nH]ncc1-c1ccc(Cl)cc1)C1CO1 (stereo not drawn)")
0
>>> label_value("Cc1cc(N)n2nc(-c3ccc(C(C)(C)C)cc3)cc2n1")
1
>>> label_value("O=C(CSc1ncn[nH]1)NCc1ccc2c(c1)OCO2")
0
>>> label_value("COc1ccc(N(CC(=O)Nc2cccc3ccccc23)S(C)(=O)=O)c(OC)c1")
0
>>> label_value("CC(=O)Nc1sc2c(c1C(c1cccc(F)c1)N1CCN(CCO)CC1)CCCC2 (stereo not drawn)")
0
>>> label_value("CC(=O)Nc1ccc(NC(=O)COC(=O)C2CCC(C(C)(C)C)CC2)cc1 (stereo not drawn)")
0
>>> label_value("COc1ccc(N(CC(=O)Nc2ccc(C)cc2C)S(=O)(=O)c2ccccc2[N+](=O)[O-])c(OC)c1")
0
>>> label_value("Cc1cccc(C(C)C)c1NC(=O)COC(=O)C1CC(=O)N(Cc2ccccc2)C1 (stereo not drawn)")
0
>>> label_value("NC(=O)C1CCN(C(=O)c2cn(-c3ccccc3)nc2-c2cccnc2)CC1")
0

###

assay.method.text: growth inhibitors of tim23-1 mutant yeast, primary screen, luminescence, uHTS (AID 463212);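 also: temperature-sensitive mutant grown at 25 °C; plate controls were DMSO-treated mutant yeast for no effect and medium wells lacking yeast for full effect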
experimental.parameters: S. cerevisiae tim23-1 growth, BacTiter-Glo luminescence, 24 h; at 20 µM; hits give high values
Screen size: about 330,000 compounds; about 4,400 (1.3%) were called active. This is one part of a sample in which actives are shown more often than they occur.
Each entry below carries its recorded inhibition.
test.readout: inhibition (%)

>>> recorded_result("COC(=O)c1cc2occc2n1Cc1nc(-c2ccccc2C)oc1C")
4.08
>>> recorded_result("CC(=C/c1ccccc1)/C=N/NC(=O)c1cc(C)oc1C")
-0.867
>>> recorded_result("CC(C)c1cc(C(=O)N/N=C/C(Br)=C/c2ccccc2)n[nH]1")
34.3
>>> recorded_result("Cc1cc(C)nc(SCc2ccccc2C#N)n1")
8
>>> recorded_result("Cc1cc(C(=O)N/N=C\\C(Br)=C\\c2ccccc2)c(C)o1")
55.9
>>> recorded_result("CCCc1[nH]nc2c1C(c1ccc(Br)s1)C(C#N)=C(N)O2 (stereo unspecified)")
86.6
>>> recorded_result("O=C1OC(c2ccc(Cl)cc2)=N/C1=C\\c1cccnc1")
40.9
>>> recorded_result("Cc1ccc(-c2ccc(/C=N/NC(=O)CN3CCOCC3)o2)cc1[N+](=O)[O-]")
55.9
>>> recorded_result("CCOc1ccc(OCC(=O)Nc2c3c(nn2C(C)(C)C)CS(=O)(=O)C3)cc1")
11.1
>>> recorded_result("CCOC(=O)c1ccc(NC(=O)c2cccnc2)cc1")
13.2
>>> recorded_result("Cc1occc1C(=O)N/N=C/c1ccc(-c2cccc([N+](=O)[O-])c2)o1")
26

###

assay.method.text: growth inhibitors of tim23-1 mutant yeast, primary screen, luminescence, uHTS (AID 463212);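 also: temperature-sensitive mutant grown at 25 °C; plate controls were DMSO-treated mutant yeast for no effect and medium wells lacking yeast for full effect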
experimental.parameters: S. cerevisiae tim23-1 growth, BacTiter-Glo luminescence, 24 h; at 20 µM; hits give high values
The whole screen tested about 330,000 compounds, of which about 4,400 (1.3%) were called active. For the sample, actives were picked, then their nearest neighbours and some compounds at random.
Response key: true means inhibition >= 40%; false means inhibition < 40%.

>>> label_value("Cc1nn(CC(=O)NCc2ccccn2)c(C)c1[N+](=O)[O-]")
"false"
>>> label_value("Cc1ccc(NC(=O)c2cc(-c3ccccc3O)n[nH]2)cc1C")
"false"
>>> label_value("CC1CCC2CCCCC2N1C(=O)c1cc([N+](=O)[O-])cc([N+](=O)[O-])c1 (stereo not given)")
"true"
>>> label_value("Cc1nn(CC(=O)Nc2nc3ccccc3s2)c(C)c1[N+](=O)[O-]")
"true"
>>> label_value("CC1(c2ccccc2)CC(C)(C)N(C(=O)c2cc([N+](=O)[O-])cc([N+](=O)[O-])c2)c2ccccc21 (stereo not given)")
"false"
>>> label_value("Cc1cc(C(=O)COC(=O)C2CC2)c(C)n1-c1ccc(F)cc1")
"false"
>>> label_value("Cc1ccc(S(=O)(=O)N2CCC(C(=O)OCC(=O)N3CC(=O)Nc4ccccc43)CC2)cc1")
"false"
>>> label_value("Oc1ccccc1-c1cc(-c2ccc(Cl)cc2)n[nH]1")
"true"
>>> label_value("CCn1c(SCc2cccc(C(=O)O)c2)nnc1-c1ccc(Cl)cc1")
"false"
>>> label_value("CSc1ccccc1-c1nnc(-c2ccc(Cl)cc2)o1")
"false"

###

assay.method.text: growth inhibitors of tim23-1 mutant yeast, primary screen, luminescence, uHTS (AID 463212);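 also: temperature-sensitive mutant grown at 25 °C; plate controls were DMSO-treated mutant yeast for no effect and medium wells lacking yeast for full effect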
experimental.parameters: S. cerevisiae tim23-1 growth, BacTiter-Glo luminescence, 24 h; at 20 µM; hits give high values
About 4,400 (1.3%) of roughly 330,000 compounds were called active. The sample holds actives, similar compounds and a random draw of the others, so the mix is not that of the screen.
test.readout: inhibition (%)

>>> recorded_result("CC(C)C[C@H](NC(=O)NCCc1ccc(Cl)cc1)C(=O)O")
9.43
>>> recorded_result("COc1cc(C2CC(=O)Oc3cc(OC)c(OC)c(OC)c32)cc(OC)c1OC (stereo unspecified)")
27.3
>>> recorded_result("Cc1ccc(N=Cc2c(O)cc(C)oc2=O)c(C)c1")
96.2
>>> recorded_result("Cc1c(C)c2ccc(OCC(=O)N3CCN(c4cccc(Cl)c4)CC3)cc2oc1=O")
-6.57
>>> recorded_result("N#C[C@]1(S(=O)(=O)c2ccccc2)C[C@@H]2ON=C(c3cccc(Br)c3)[C@@H]2C1")
24.4
>>> recorded_result("CN1C(=O)/C(=N/OC(=O)c2ccccc2Br)c2ccccc21")
56.2
>>> recorded_result("Cc1ccc2nc(SCC(=O)N3CC(C)OC(C)C3)nc(=O)n2c1 (stereo unspecified)")
10.2
>>> recorded_result("COc1ccccc1NC(=O)c1ccc(N2CC3CC(C2)c2cccc(=O)n2C3)c(NC(=O)c2cccnc2)c1 (stereo unspecified)")
-0.075
>>> recorded_result("Fc1ccccc1COc1ccccc1CNCc1ccncc1")
3.21
>>> recorded_result("Cc1ccc(Cn2nnc3c(=O)[nH]c(C4CCN(S(=O)(=O)/C=C/c5ccccc5)CC4)nc32)cc1")
17.8
>>> recorded_result("CCN=c1sc(C(=O)Nc2ccccc2)c(C)n1CC")
-9.39
